- Tested on: Culex pipiens pallens
- procedure-text: Insecticidal activity against Culex pipiens pallens (mosquito) assessed as insect mortality at 25 ug/kg measured 1 day post compound treatment
- Type: functional
- test-parameters: 24 h
Measured mortality at 0.025 mg/kg, listed per entry.
All answers are understood in %, so give the number only.

Use these answered entries as a reference point.
{"compound": "CCSc1c(C#N)nn(-c2c(Cl)cc(C(F)(F)F)cc2Cl)c1NC(OCCF)C(Cl)(Cl)Cl (stereo not drawn)", "mortality at 0.025 mg/kg, %": 100}
{"compound": "CCCOC(Nc1c(SC)c(C#N)nn1-c1c(Cl)cc(C(F)(F)F)cc1Cl)C(Cl)(Cl)Cl (stereo not drawn)", "mortality at 0.025 mg/kg, %": 100}
{"compound": "COC(Nc1c(SC)c(C#N)nn1-c1c(Cl)cc(C(F)(F)F)cc1Cl)C(Cl)(Cl)Cl (stereo not drawn)", "mortality at 0.025 mg/kg, %": 100}
{"compound": "CC[S+]([O-])c1c(C#N)nn(-c2c(Cl)cc(C(F)(F)F)cc2Cl)c1NC(OC)C(Cl)(Cl)Cl (stereo not drawn)", "mortality at 0.025 mg/kg, %": 0}

Returns the measured mortality at 0.025 mg/kg for the input compound. Input: CCOC(Nc1c([S+]([O-])CC)c(C#N)nn1-c1c(Cl)cc(C(F)(F)F)cc1Cl)C(Cl)(Cl)Cl (stereo not drawn)
40

Lookup CCCOC(Nc1c([S+](C)[O-])c(C#N)nn1-c1c(Cl)cc(C(F)(F)F)cc1Cl)C(Cl)(Cl)Cl (stereo not drawn)
50

Lookup CCOC(Nc1c(SC)c(C#N)nn1-c1c(Cl)cc(C(F)(F)F)cc1Cl)C(Cl)(Cl)Cl (stereo not drawn)
100

Lookup CSc1c(C#N)nn(-c2c(Cl)cc(C(F)(F)F)cc2Cl)c1NC(OCCCl)C(Cl)(Cl)Cl (stereo not drawn)
100

====

Measured mortality at 10 mg/kg, listed per entry.
- Test system: Aphis craccivora
- procedure-text: Insecticidal activity against Aphis craccivora (cowpea aphid) infested tender soybean shoots exposed to 10 mg/kg test compound solution assessed as insect mortality measured 24 hr post compound treatment
- Type: functional
- test-parameters: Aphis craccivora, 24 h
All answers are understood in %, so give the number only.

Use these answered entries as a reference point.
{"molecule": "CCCOC(Nc1c([S+]([O-])CC)c(C#N)nn1-c1c(Cl)cc(C(F)(F)F)cc1Cl)C(Cl)(Cl)Cl (centres undefined)", "result-type": "mortality at 10 mg/kg", "numeric-value": 100}
{"molecule": "CC[S+]([O-])c1c(C#N)nn(-c2c(Cl)cc(C(F)(F)F)cc2Cl)c1NC(OCCCl)C(Cl)(Cl)Cl (centres undefined)", "result-type": "mortality at 10 mg/kg", "numeric-value": 48}
{"molecule": "COC(Nc1c([S+](C)[O-])c(C#N)nn1-c1c(Cl)cc(C(F)(F)F)cc1Cl)C(Cl)(Cl)Cl (centres undefined)", "result-type": "mortality at 10 mg/kg", "numeric-value": 100}

Here is the next item to consider.
Returns the measured mortality at 10 mg/kg for the input molecule. Input: CSc1c(C#N)nn(-c2c(Cl)cc(C(F)(F)F)cc2Cl)c1NC(OCCCl)C(Cl)(Cl)Cl (centres undefined)
73

====

- Tested on: Plutella xylostella
- procedure-text: Insecticidal activity against Plutella xylostella (diamondback moth) grown on compound pre-treated fresh cabbage leaves assessed as insect mortality at 25 mg/kg measured 3 days post compound treatment by leaf-dip method
- Assay type: functional
- test-parameters: Plutella xylostella
result-type: mortality at 25 mg/kg
Kindly format the answer as number then unit.

Use these answered entries as a reference point.
{"compound": "CCCOC(Nc1c([S+](C)[O-])c(C#N)nn1-c1c(Cl)cc(C(F)(F)F)cc1Cl)C(Cl)(Cl)Cl (centres undefined)", "result-type": "mortality at 25 mg/kg", "result": "100%"}
{"compound": "CCOC(Nc1c(SCC)c(C#N)nn1-c1c(Cl)cc(C(F)(F)F)cc1Cl)C(Cl)(Cl)Cl (centres undefined)", "result-type": "mortality at 25 mg/kg", "result": "44%"}
{"compound": "CC[S+]([O-])c1c(C#N)nn(-c2c(Cl)cc(C(F)(F)F)cc2Cl)c1NC(OCCF)C(Cl)(Cl)Cl (centres undefined)", "result-type": "mortality at 25 mg/kg", "result": "46%"}

Here is the next item to consider.
Returns the measured mortality at 25 mg/kg for the input compound. Input: CCSc1c(C#N)nn(-c2c(Cl)cc(C(F)(F)F)cc2Cl)c1NC(OCCF)C(Cl)(Cl)Cl (centres undefined)
100%

====

- System: Aphis craccivora
- procedure-text: Insecticidal activity against Aphis craccivora (cowpea aphid) infested tender soybean shoots exposed to 10 mg/kg test compound solution assessed as insect mortality measured 24 hr post compound treatment
- Type: functional
- test-parameters: Aphis craccivora, 24 h
Answer Not fulfilled if mortality at 10 mg/kg is under 90%, and Fulfilled if it is 90% or more.

Check out these entries, answers already filled in.
{"compound": "CCSc1c(C#N)nn(-c2c(Cl)cc(C(F)(F)F)cc2Cl)c1NC(OCCF)C(Cl)(Cl)Cl (configuration not stated)", "tested-on": "Aphis craccivora", "label": "Not fulfilled"}
{"compound": "CCCOC(Nc1c(SC)c(C#N)nn1-c1c(Cl)cc(C(F)(F)F)cc1Cl)C(Cl)(Cl)Cl (configuration not stated)", "tested-on": "Aphis craccivora", "label": "Not fulfilled"}
{"compound": "C[S+]([O-])c1c(C#N)nn(-c2c(Cl)cc(C(F)(F)F)cc2Cl)c1NC(OCCCl)C(Cl)(Cl)Cl (stereo in doubt; 7e-2)", "tested-on": "Aphis craccivora", "label": "Fulfilled"}
{"compound": "CC[S+]([O-])c1c(C#N)nn(-c2c(Cl)cc(C(F)(F)F)cc2Cl)c1NC(OC)C(Cl)(Cl)Cl (configuration not stated)", "tested-on": "Aphis craccivora", "label": "Not fulfilled"}
{"compound": "CCOC(Nc1c([S+](C)[O-])c(C#N)nn1-c1c(Cl)cc(C(F)(F)F)cc1Cl)C(Cl)(Cl)Cl (configuration not stated)", "tested-on": "Aphis craccivora", "label": "Not fulfilled"}
{"compound": "CCCOC(Nc1c([S+](C)[O-])c(C#N)nn1-c1c(Cl)cc(C(F)(F)F)cc1Cl)C(Cl)(Cl)Cl (configuration not stated)", "tested-on": "Aphis craccivora", "label": "Fulfilled"}
{"compound": "CCOC(Nc1c(SC)c(C#N)nn1-c1c(Cl)cc(C(F)(F)F)cc1Cl)C(Cl)(Cl)Cl (configuration not stated)", "tested-on": "Aphis craccivora", "label": "Not fulfilled"}
{"compound": "CCSc1c(C#N)nn(-c2c(Cl)cc(C(F)(F)F)cc2Cl)c1NC(OCCCl)C(Cl)(Cl)Cl (configuration not stated)", "tested-on": "Aphis craccivora", "label": "Not fulfilled"}

Could you verify whether the entry CCOC(Nc1c([S+]([O-])CC)c(C#N)nn1-c1c(Cl)cc(C(F)(F)F)cc1Cl)C(Cl)(Cl)Cl (configuration not stated) shows mortality at 10 mg/kg of no less than 90%?
Fulfilled

Lookup CCOC(Nc1c(SCC)c(C#N)nn1-c1c(Cl)cc(C(F)(F)F)cc1Cl)C(Cl)(Cl)Cl (configuration not stated)
Not fulfilled

Lookup CCSc1c(C#N)nn(-c2c(Cl)cc(C(F)(F)F)cc2Cl)c1NC(OC)C(Cl)(Cl)Cl (configuration not stated)
Not fulfilled

Lookup CCCOC(Nc1c(SCC)c(C#N)nn1-c1c(Cl)cc(C(F)(F)F)cc1Cl)C(Cl)(Cl)Cl (configuration not stated)
Not fulfilled

Lookup CC[S+]([O-])c1c(C#N)nn(-c2c(Cl)cc(C(F)(F)F)cc2Cl)c1N (configuration not stated) [ETHIPROLE]
Not fulfilled

Lookup CSc1c(C#N)nn(-c2c(Cl)cc(C(F)(F)F)cc2Cl)c1NC(OCCF)C(Cl)(Cl)Cl (configuration not stated)
Not fulfilled

Lookup C[S+]([O-])c1c(C#N)nn(-c2c(Cl)cc(C(F)(F)F)cc2Cl)c1NC(OCCF)C(Cl)(Cl)Cl (stereo in doubt; 7d-2)
Fulfilled

Lookup CC[S+]([O-])c1c(C#N)nn(-c2c(Cl)cc(C(F)(F)F)cc2Cl)c1NC(OCCF)C(Cl)(Cl)Cl (configuration not stated)
Fulfilled

====

Measured mortality at 0.025 mg/kg, listed per entry.
- System: Culex pipiens pallens
- procedure-text: Insecticidal activity against Culex pipiens pallens (mosquito) assessed as insect mortality at 25 ug/kg measured 1 day post compound treatment
- Format: functional
- test-parameters: 24 h

Use these answered entries as a reference point.
{"compound": "CSc1c(C#N)nn(-c2c(Cl)cc(C(F)(F)F)cc2Cl)c1NC(OCCF)C(Cl)(Cl)Cl (stereo not drawn)", "result-type": "mortality at 0.025 mg/kg", "result": "100%"}
{"compound": "CCSc1c(C#N)nn(-c2c(Cl)cc(C(F)(F)F)cc2Cl)c1NC(OCCCl)C(Cl)(Cl)Cl (stereo not drawn)", "result-type": "mortality at 0.025 mg/kg", "result": "100%"}
{"compound": "CC[S+]([O-])c1c(C#N)nn(-c2c(Cl)cc(C(F)(F)F)cc2Cl)c1N (stereo not drawn)", "result-type": "mortality at 0.025 mg/kg", "result": "50%"}

Returns the measured mortality at 0.025 mg/kg for the input compound. Input: CCCOC(Nc1c(SCC)c(C#N)nn1-c1c(Cl)cc(C(F)(F)F)cc1Cl)C(Cl)(Cl)Cl (stereo not drawn)
100%

Lookup CCOC(Nc1c(SCC)c(C#N)nn1-c1c(Cl)cc(C(F)(F)F)cc1Cl)C(Cl)(Cl)Cl (stereo not drawn)
100%

Lookup CCSc1c(C#N)nn(-c2c(Cl)cc(C(F)(F)F)cc2Cl)c1NC(OC)C(Cl)(Cl)Cl (stereo not drawn)
100%

Lookup CCCOC(Nc1c([S+]([O-])CC)c(C#N)nn1-c1c(Cl)cc(C(F)(F)F)cc1Cl)C(Cl)(Cl)Cl (stereo not drawn)
0%

Lookup CCOC(Nc1c([S+](C)[O-])c(C#N)nn1-c1c(Cl)cc(C(F)(F)F)cc1Cl)C(Cl)(Cl)Cl (stereo not drawn)
30%
